Ref: PubChem BioAssay (Tox21)

# ASSAY SUMMARY: qHTS assay to identify small molecule agonists of the estrogen receptor alpha (ER-alpha) signaling pathway in the presence of an antagonist - cell viability counter screen (AID 1259386);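 note: cells exposed to compounds for 22 h at 37 °C before the viability read; nearly all actives have a fitted effect of over 30% in size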
# MEASUREMENT SETUP: VM7Luc4E2 viability, CellTiter-Fluor fluorescence, 22 h; series mostly up to 92.4 µM
Inconclusive results are not listed. Activity calls are given as the source filed them. Calls come from the whole dose curve; as a rule, active = well fitted cell-killing curve with a large enough effect in the repeat runs; inconclusive = weak or mixed curves, or effect the other way; inactive = no such curve, though single readings can be large or run the other way.
Parameter call: string, one of active, inactive

Short answer needed: outcome of this test for CC(CCc1ccccc1)NCC(O)c1ccc(O)c(C(N)=O)c1 (stereo unspecified) ? active

Short answer needed: outcome of this test for O=[N+]([O-])c1ccc(O)cc1C(F)(F)F ? active

Short answer needed: outcome of this test for CCCC(=O)OCOC(=O)C1=C(C)NC(C)=C(C(=O)OC)C1c1cccc(Cl)c1Cl (stereo unspecified) ? inactive

Short answer needed: outcome of this test for CCC(=O)OC(=O)CC ? inactive

Short answer needed: outcome of this test for Cc1c(C)c([N+](=O)[O-])c(C(C)(C)C)c([N+](=O)[O-])c1C ? inactive

Short answer needed: outcome of this test for CCCCCc1ccc(Cl)cc1 ? inactive

Short answer needed: outcome of this test for CCCCOC(=O)CO ? inactive

Short answer needed: outcome of this test for CN(C)CCN1CCN(c2cccc(Cl)c2)C1=O ? inactive

Short answer needed: outcome of this test for CCO[Si](OCC)(OCC)OCC ? inactive

Short answer needed: outcome of this test for CCC(=O)C(=O)CC ? inactive

Short answer needed: outcome of this test for COc1cc(/C=C/c2ccccc2)oc(=O)c1 ? inactive

Short answer needed: outcome of this test for COc1c(C)c2c(c(O)c1C/C=C(\C)CCC(=O)OCCN1CCOCC1)C(=O)OC2 ? inactive

Short answer needed: outcome of this test for CC[N+](CC)(CC)CCOc1ccc(/C=C/c2ccccc2)cc1 ? inactive

Short answer needed: outcome of this test for CCCCCCCCCCCCOCCOCCOCCOCCOCCOCCOCCOCCOCCO ? active

Short answer needed: outcome of this test for CCc1cccc(CC)c1NC(=O)CN(CC(=O)O)CC(=O)O ? inactive

Short answer needed: outcome of this test for Sc1nc2ccccc2s1 ? inactive

Short answer needed: outcome of this test for Fc1ccc(C(c2ccc(F)cc2)N2CCNCC2)cc1 ? inactive

Short answer needed: outcome of this test for CC(C)CCOC(=O)/C=C/c1ccccc1 ? inactive

Short answer needed: outcome of this test for C=Cc1ccccc1C=C ? inactive

Short answer needed: outcome of this test for O=C(O)[C@H](O)[C@@H](O)[C@H](O[C@@H]1O[C@H](CO)[C@H](O)[C@H](O)[C@H]1O)[C@H](O)CO ? inactive

Short answer needed: outcome of this test for CCC(C)[O-].CCC(C)[O-].CCOC(=O)/C=C(/C)[O-].[Al+3] ? inactive

Short answer needed: outcome of this test for CCC(COC(=O)CCS)(COC(=O)CCS)COC(=O)CCS ? inactive

Short answer needed: outcome of this test for Cc1c(C)c2c(c(C)c1O)CC[C@@](C)(CCC[C@H](C)CCC[C@H](C)CCCC(C)C)O2 ? inactive

Short answer needed: outcome of this test for Nc1ccc(NCCO)c([N+](=O)[O-])c1 ? active

Short answer needed: outcome of this test for CCCCNS(=O)(=O)c1ccc(C)cc1 ? inactive

Short answer needed: outcome of this test for C=CCn1c(=O)n(CC=C)c(=O)n(CC=C)c1=O ? inactive
